ASSAY DETAILS: HILIC, HILICON iHILIC-(P) Classic, HILIC, PEEK, 100 × 2.1 mm, 5 µm, 40 °C, 0.12 mL/min, estimated dead time 1.8 min; A: water + 20 mM ammonium carbonate + 5 µM medronic acid; B: 10% water + 90% acetonitrile + 2 mM ammonium carbonate + 0.5 µM medronic acid; gradient (min/%B) 0/95 18/55 19/20 22/20 22.5/95 24/95 26/95
TEST CONTEXT: stereoisomer not certain
ATTRIBUTE MEASURED: LC retention time (min)
Answer format: numeric, min implied, no suffix.

NC(=O)C1=CN(C2OC(COP(=O)(O)OP(=O)(O)OCC3OC(n4cnc5c(N)ncnc54)C(O)C3O)C(O)C2O)C=CC1 (configuration not stated)    9.3
O=P(O)(O)OCC1OC(O)C(O)C1O (configuration not stated) [Pentose-phosphate]    11.3
Nc1ncnc2c1ncn2C1OC(COP(=O)(O)OP(=O)(O)OP(=O)(O)O)C(O)C1O (configuration not stated)    13.7
O=P(O)(O)OCC(O)CO (configuration not stated) [Glycerol-3-phosphate]    11
Nc1ncnc2c1ncn2C1OC(COP(=O)(O)O)C(O)C1O (configuration not stated)    9.81
NC(=O)c1ccc[n+](C2OC(COP(=O)(O)OP(=O)(O)OCC3OC(n4cnc5c(N)ncnc54)C(OP(=O)(O)O)C3O)C(O)C2O)c1 (configuration not stated)    14.3

What value of LC retention time has been reported for the following compound? O=C(CO)COP(=O)(O)O [Triose phosphate] 11.3

What value of LC retention time has been reported for the following compound? O=C(O)CCC(=O)C(=O)O 12.7

What value of LC retention time has been reported for the following compound? NC(CCC(=O)NC(CSSCC(NC(=O)CCC(N)C(=O)O)C(=O)NCC(=O)O)C(=O)NCC(=O)O)C(=O)O (configuration not stated) 14.8

What value of LC retention time has been reported for the following compound? CC(C)(COP(=O)(O)OP(=O)(O)OCC1OC(n2cnc3c(N)ncnc32)C(O)C1OP(=O)(O)O)C(O)C(=O)NCCC(=O)NCCS (configuration not stated) 11.4

What value of LC retention time has been reported for the following compound? O=P(O)(O)OC1OC(CO)C(O)C(O)C1O (configuration not stated) [Glucose-1-phosphate] 12.5

What value of LC retention time has been reported for the following compound? O=C(O)C=CC(=O)O 12
